assay-name: soluble on expression in E. coli; label from the status in PepcDB or PDB records
quantity: soluble on expression in E. coli

[[record]]
seq_string = "MGSDKIHHHHHHMWRNAQVNWDDYRCFLTLAKTGSFSRAARLLHVDHTTVGRRVAALEVDLGIKLVERLAREVRLTAEGHDLATLGLPVEEAMASVERAAAGGGAALAGPVHISAPPGLASLLLAPKLVSLHRQYPEIKITMSSDKDFANLNRREADIALRLSRPLSNGLVARKLRDIPFFFFASHTYDIAEDDWEFITYLQADDILPQQSWLMQHIGSRTIALRCSDAASQVQAAASGLGVALLPDYLGYNDTRLRKCPSRLTPPRRELWMVVHDDIRHAPRVRVVLDFLIGILTATQDLELPHASEA"
quantity = "soluble on expression in E. coli"
value = "not soluble"

[[record]]
seq_string = "DAAGVSEVEVEATEIENLKAELSEMEDKFLRARAEIANMSNRNKNERELLVRYRSQDLGKKILPSIDNLERAMAIEVSDEQGESLKKGISMVLESITVALKEEG"
quantity = "soluble on expression in E. coli"
value = "not soluble"

[[record]]
seq_string = "MKDELIKKLSRPEWDFQYDSEKEVLRIEQKDSKKGINVSLPGVVAKWEVNKEKAIEEVAYYVQEALIAMHKEENSGAKILPVIRSTSFPKQAEEGNPFIMTDHTAETRIYYALDSNKTYRLIDERLLQKLELTEQQVREMALFNARSLGYEFKQDTVAGNTFYFLNTNDGYDATRILNESLLQSMREKISGDMVVAVPHQDVLIIADIVNEIGYDIIAQMTMKFFAEGHVPITSLSFVYEDGEFEPIFILAKNRKKTDGKEKG"
quantity = "soluble on expression in E. coli"
value = "not soluble"


---

assay-name: soluble on expression in E. coli; label from the status in PepcDB or PDB records
quantity: soluble on expression in E. coli

[[record]]
seq_string = "MELKLIPIEKPENLNVILGQAHFIKTVEDLHEALVTAVPGIRFGLAFSEASGKRLVRRSGTDEALVELAVKNLLNLACGHVFLIVLGEGFYPINVLHAVKACPEVVRIYAATANPLKVVVAEEGEQRAILGVMDGFTPLGVEDEAEVAWRKDLLRRLGYKL"
quantity = "soluble on expression in E. coli"
value = "soluble"

[[record]]
seq_string = "MIHSMTAFSRIQKQFDVGDFCWEIRSVNHRYLDVSFRLPESFRFLEAELRTLLRDKIHRGKLECHLKYKDTSCDNRSMLINIGTINALLDLSSKLSASHHLANDMTVSQVLSWPGVVEANLLDMEELSQIALELFQKSIDKLCEVRAGEGRSLKAYVEDRLQALRQEVMKSKSIVVSMSAKTKDKLLTRLHELQMDVPEARVEQEIALLLAKLDVSEELDRLETHIAEVSRTLNAEKVTGRRLDFLMQELNREANTLSSKSDSAELTLCAVEMKVLIEQMREQIQNFE"
quantity = "soluble on expression in E. coli"
value = "not soluble"

[[record]]
seq_string = "LTLGNTTSSVILTNYMDTQYYGEIGIGTPPQTFKVVFDTGSSNVWVPSSKCSRLYTACVYHKLFDASDSSSYKHNGTELTLRYSTGTVSGFLSQDIITVGGITVTQMFGEVTEMPALPFMLAEFDGVVGMGFIEQAIGRVTPIFDNIISQGVLKEDVFSFYYNRDSENSQSLGGQIVLGGSDPQHYEGNFHYINLIKTGVWQIQMKGVSVGSSTLLCEDGCLALVDTGASYISGSTSSIEKLMEALGAKKRLFDYVVKCNEGPTLPDISFHLGGKEYTLTSADYVFQESYSSKKLCTLAIHAMDIPPPTGPTWALGATFIRKFYTEFDRRNNRIGFALAR"
quantity = "soluble on expression in E. coli"
value = "soluble"

[[record]]
seq_string = "MRAIGLLEFKEITRGVYAADVMLKATPVELLLIDNICPGKLIVLIEGEVSAVKNAISRGKEVFSEGVIEEVVLTNPHPSLSTVFPRKKQSKKLNYNSIGIIETLSVSSAIKAADKAAKGANVEIIDIKIARFLGGKAIVVLGGEISAVKVAIDAGISAVQKGKLVSSTVVANINEKLLEMWV"
quantity = "soluble on expression in E. coli"
value = "soluble"

[[record]]
seq_string = "MELETEIIVDKVDVENPILITSFPGIGLVGTIATAHYIMELKLESIGIVDSRLLPPVASLYEGVILPPVRVYQSADLGFVLIHSDVPIIPQAAIDMSKKIVQFAAEINARRVYSFAGVATFEDKKRVFAAATSKELLEEVKDHAEIFKTGTISGIAGSIMNECVAAKMPGIVLLGETLGFNPDPRAAASLIEAVNKIMNWNVSVEKLLKEAEMIEAQMQKLAEQARMQEERKEEFPMYG"
quantity = "soluble on expression in E. coli"
value = "soluble"

[[record]]
seq_string = "MKKWLALFVFGMVSLFATSAHAESYETTKTLKVYESRSFNSPVKKELQPGERVYVTNQHPSGWWKISGGFIAPEGAKVEINRTFEAFDWINMDSAKYVFSPQTVIARDGTLRGEILIDTYLGQKWTSVNGMPQIMKQNFAAYSSPEAKNPDAWFAPQTVNILQTKENGWSLINTYLGPKWIVRYPHVEHINRDFYAYNEPKYMHHGVKFSAQSVRVLQQGENGWKKIKAEVGEKWIAPQGSYYHVPNVFTAFDQPFGRAIGTFAPQTVFVVEESTTSFGWLKIRTYLGDSWIRTNRN"
quantity = "soluble on expression in E. coli"
value = "not soluble"

